Cited source: patent US20240376084A1

Examples of compounds with documented pEC50 follow.
target: S. aureus Alpha hemolysin (Staphylococcus aureus); assay: cell-based; details: A549-LDH Assay activity
Sequence (P09616 27-319 limits assumed): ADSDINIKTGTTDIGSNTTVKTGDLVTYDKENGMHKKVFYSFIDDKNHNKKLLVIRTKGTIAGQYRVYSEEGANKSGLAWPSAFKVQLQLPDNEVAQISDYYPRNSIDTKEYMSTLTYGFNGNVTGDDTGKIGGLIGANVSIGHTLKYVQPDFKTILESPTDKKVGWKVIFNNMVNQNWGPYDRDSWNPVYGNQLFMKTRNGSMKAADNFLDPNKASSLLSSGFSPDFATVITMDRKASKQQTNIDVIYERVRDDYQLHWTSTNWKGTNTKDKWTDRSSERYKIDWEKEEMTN
pEC50: −log10 of the molar value.

Recorded pEC50, per entry:
| compound | pEC50 |
| --- | --- |
| O=c1[nH]c2cc(Cl)c(S(=O)(=O)Nc3ccc4c(c3)CCCC4)cc2[nH]c1=O [Compound 174] | 7.00 to 7.52 |
| COc1cc(NS(=O)(=O)c2cc3[nH]c(=O)c(=O)[nH]c3cc2C)ccc1-c1ccccc1 [Compound 81] | 6.00 to 7.00 |
| O=c1[nH]c2cc(Cl)c(S(=O)(=O)Nc3ccc(C(F)(F)F)cc3)cc2[nH]c1=O [Compound 93] | 6.00 to 7.00 |

-- ask Find the recorded pEC50 belonging to Cc1cc2[nH]c(=O)c(=O)[nH]c2cc1S(=O)(=O)Nc1ccc(-c2ccc(C#N)cc2)c(Cl)c1 [Compound 376] and report it.
-- reply 7.00 to 7.52

-- ask Find the recorded pEC50 belonging to O=c1[nH]c2cc(F)c(S(=O)(=O)Nc3ccc(-c4ccccc4)c(Cl)c3)cc2[nH]c1=O [Compound 40] and report it.
-- reply 6.00 to 7.00

-- ask Find the recorded pEC50 belonging to C#Cc1cc(NS(=O)(=O)c2cc3[nH]c(=O)c(=O)[nH]c3cc2C)ccc1-c1ccc(OC)c(F)c1 [Compound 300] and report it.
-- reply > 7.52

-- ask Find the recorded pEC50 belonging to Cc1cc2[nH]c(=O)c(=O)[nH]c2cc1S(=O)(=O)Nc1ccc(-c2ccc(C#N)cc2)c(Br)c1 [Compound 298] and report it.
-- reply 7.00 to 7.52

-- ask Find the recorded pEC50 belonging to Cc1cc2[nH]c(=O)c(=O)[nH]c2cc1S(=O)(=O)Nc1cc(C)c(-c2cccs2)c(C)c1 [Compound 58] and report it.
-- reply 5.22 to 6.00

-- ask Find the recorded pEC50 belonging to CC(C)c1cc2[nH]c(=O)c(=O)[nH]c2cc1S(=O)(=O)Nc1ccc(OC(F)(F)F)cc1 [Compound 31] and report it.
-- reply > 7.52

-- ask Find the recorded pEC50 belonging to COc1ccc(-c2ccc(NS(=O)(=O)c3cc4[nH]c(=O)c(=O)[nH]c4cc3C)cc2C(F)(F)F)cc1F [Compound 345] and report it.
-- reply > 7.52

-- ask Find the recorded pEC50 belonging to Cc1cc2[nH]c(=O)c(=O)[nH]c2cc1S(=O)(=O)Nc1cc(Cl)c(-c2ccc(F)c(Cl)c2)cn1 [Compound 211] and report it.
-- reply 6.00 to 7.00

-- ask Find the recorded pEC50 belonging to Cc1cc2[nH]c(=O)c(=O)[nH]c2cc1S(=O)(=O)Nc1ccc(-c2cc(F)cc(C(N)=O)c2)c(C(F)(F)F)c1 [Compound 363] and report it.
-- reply 7.00 to 7.52

-- ask Find the recorded pEC50 belonging to Cc1cc2[nH]c(=O)c(=O)[nH]c2cc1S(=O)(=O)Nc1ccc(-c2ccc3[nH]ncc3c2)c(Cl)c1 [Compound 273] and report it.
-- reply 6.00 to 7.00

-- ask Find the recorded pEC50 belonging to O=c1[nH]c2cc(Cl)c(S(=O)(=O)Nc3ccc(OC(F)(F)F)cc3)cc2[nH]c1=O [Compound 47] and report it.
-- reply 7.00 to 7.52

-- ask Find the recorded pEC50 belonging to Cc1cc2[nH]c(=O)c(=O)[nH]c2cc1S(=O)(=O)Nc1ccc(-c2ccc(C#N)nc2)c(Cl)c1 [Compound 254] and report it.
-- reply 6.00 to 7.00

-- ask Find the recorded pEC50 belonging to O=c1[nH]c2cc(Cl)c(S(=O)(=O)Nc3ccc(-c4cccc(Cl)c4)c(Cl)c3)cc2[nH]c1=O [Compound 35] and report it.
-- reply 6.00 to 7.00
